Test system Micrococcus luteus ATCC 9341, MIC listed for each of the molecules.

1) CC[C@H]1OC(=O)[C@H](C)C(=O)[C@H](C)[C@@H](O[C@@H]2O[C@H](C)C[C@H](N(C)C)[C@H]2O)[C@](C)(OC/C=C/c2cncc(-c3cncnc3)c2)C[C@@H](C)C(=O)[C@H](C)[C@H]2NC(=O)O[C@@]21C [Example 45]; 0.01 µg/mL

We next turn to a different molecule, shown below.
MIC reading for CC[C@H]1OC(=O)[C@H](C)C(=O)[C@H](C)[C@@H](O[C@@H]2O[C@H](C)C[C@H](N(C)C)[C@H]2O)[C@](C)(OC/C=C/c2cnc(-c3cncs3)s2)C[C@@H](C)C(=O)[C@H](C)[C@H]2NC(=O)O[C@@]21C [Example 60] : ≤ 0.005 µg/mL
